Would you kindly list phosphorylation enrichment for each of these sequences?
- experimental-target: Fyn (UniProt P06241)
- Sequence (P06241 whole entry, looked up): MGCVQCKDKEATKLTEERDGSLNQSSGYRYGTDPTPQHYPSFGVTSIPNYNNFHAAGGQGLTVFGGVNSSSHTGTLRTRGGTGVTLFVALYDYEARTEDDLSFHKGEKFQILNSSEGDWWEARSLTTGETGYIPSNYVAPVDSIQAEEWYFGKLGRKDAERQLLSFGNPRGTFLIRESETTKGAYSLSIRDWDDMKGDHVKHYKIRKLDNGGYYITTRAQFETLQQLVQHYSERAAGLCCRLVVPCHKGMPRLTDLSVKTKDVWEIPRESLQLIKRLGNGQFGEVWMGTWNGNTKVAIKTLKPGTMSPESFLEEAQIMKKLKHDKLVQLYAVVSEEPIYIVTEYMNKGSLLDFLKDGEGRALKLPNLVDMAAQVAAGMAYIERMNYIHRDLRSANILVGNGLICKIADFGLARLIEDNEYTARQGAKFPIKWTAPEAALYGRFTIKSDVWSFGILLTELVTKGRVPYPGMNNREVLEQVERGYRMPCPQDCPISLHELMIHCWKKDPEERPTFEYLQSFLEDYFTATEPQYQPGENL
- experiment-notes: phosphorylation enrichment, bacterial display (enrichment ratio); higher = better substrate or ligand; peptides without Tyr show the background;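 further: 11-residue human phosphosite peptides and single-mutation variants displayed on the E. coli surface, counted by deep sequencing, each peptide's frequency after selection divided by its frequency in the unselected input library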;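 further: frequency after pTyr selection over input frequency; kinase dosed for 20-30% of maximal phosphorylation in three min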
The reply should be a number, written without any unit.

**Q:** // phosphorylation enrichment lookup, key: SSMIDYNPLEK [MYOC_Y479]
**A:** 0.596

**Q:** Also check FQEKGYNKEPR [CHRND_Y38_L42P]
**A:** 0.649

**Q:** Also check FADIAYIFRHG [PAH_Y166_N167I_YF]
**A:** 0.508

**Q:** Also check FSPCDYQPCLA [TNS1_Y798_Y796C_YF]
**A:** 0.581

**Q:** Also check EQKRYYNAMKK [SCN5A_Y1495_K1493R]
**A:** 0.457

**Q:** Also check TACNPYKPPGP
**A:** 0.469

**Q:** Also check SKGYAYVHFDS [PABPC5_Y149]
**A:** 0.449

**Q:** Also check QCTSAHPLQPE [NANS_Y188_Y188H]
**A:** 0.601

**Q:** Also check INQGPYENRSV [ATP6V1B1_Y462]
**A:** 0.38

**Q:** Also check SLGKGYSDGGC [MC4R_Y35]
**A:** 0.47

**Q:** Also check ISNATYKEIGL [FLT1_Y199]
**A:** 0.447

**Q:** Also check EEEPVYKAEPE [HCLS1_Y360_E361K]
**A:** 0.675

**Q:** Also check TDEYEYDELIV [TGM1_Y136]
**A:** 0.57

**Q:** Also check FPPISYLNAIS [MVD_Y276]
**A:** 0.488

**Q:** Also check KPVDTYFDSTR [DYNC2H1_Y2230_M2227V_YF]
**A:** 0.567

**Q:** Also check LRGEDYGFSVD [PRKCI_Y430]
**A:** 0.518

**Q:** Also check FSVDGYDSSVR [KCNQ1_Y461]
**A:** 0.461

**Q:** Also check RHLREYQDLLN [DES_Y388]
**A:** 0.483

**Q:** Also check DLTQDYEEWKR [ORC6_Y232]
**A:** 0.707

**Q:** Also check EQLGEYKFQNA [ALB_Y425]
**A:** 0.394

**Q:** Also check LPEHPYHSRPR [NDUFA8_Y142_N140H]
**A:** 2.04

**Q:** Also check HVIKLYGACSQ [RET_Y791]
**A:** 0.489

**Q:** Also check QEKKGYFEDRR [GLUL_Y336]
**A:** 0.906

**Q:** Also check EAKENYGKTLK [CHL1_Y291_T287A]
**A:** 0.338

**Q:** Also check REEKNYKHKET [BCLAF1_Y459_L461H]
**A:** 0.436

**Q:** Also check RSSGGYEPRGC [FUS_Y239_R244C]
**A:** 0.351

**Q:** Also check GMRHGYGVRQS [JPH2_Y141]
**A:** 0.369

**Q:** Also check IDPYTYTPFGS [CYP3A4_Y432_I431T]
**A:** 7.04

**Q:** Also check RELSWYRGQRP [HESX1_Y106_R109Q]
**A:** 0.505

**Q:** Also check GGQSVYHVNLH [HINT1_Y109_H112N]
**A:** 1.01

###

- Tested on: c-Abl (mouse)
- experiment-notes: phosphorylation enrichment, bacterial display (enrichment ratio); higher = better substrate or ligand; peptides without Tyr show the background
experimental-readout: phosphorylation enrichment
The reply should be a number, written without any unit.

**Q:** // phosphorylation enrichment lookup, key: DSFWSYCNAVA [SLC20A2_Y436_S434W_YF]
**A:** 0.745

**Q:** Also check RPFSPYIIRGM [LRP5_Y1531_R1529S_YF]
**A:** 0.595

**Q:** Also check FRNSLYAPDYS [FAM92A_Y226]
**A:** 0.493

**Q:** Also check MGSYNYLGFAW [SPTLC2_Y178_R183W]
**A:** 0.737

**Q:** Also check MLEAPYVDRNS [F10_Y384_V382A]
**A:** 0.689

**Q:** Also check TDLAFYLVRKG [ASL_Y376_YF]
**A:** 0.611

**Q:** Also check QEIATYRRLPE [KRT16_Y417_L421P]
**A:** 0.683

**Q:** Also check NPQKPYFIRLY [WAS_Y83_S82P]
**A:** 0.544

**Q:** Also check LVTRSYLLGNS [LMNA_Y646]
**A:** 1.14

**Q:** Also check QYPDIYAREEV [CRX_Y67_V66I]
**A:** 2.12

**Q:** Also check EFLQKYKGFKI [SYNE1_Y6953_YF]
**A:** 0.549

**Q:** Also check ERFSYYGMKAV [SLC15A2_Y61]
**A:** 0.578

**Q:** Also check FMYKVYSDPQP [FGFR1_Y280_C277Y]
**A:** 0.521

**Q:** Also check EQLGEYKFQNA [ALB_Y425]
**A:** 0.774

**Q:** Also check LARDMYDKEYY [MET_Y1230]
**A:** 0.652

**Q:** Also check VSFGEYRFRSV [CFTR_Y515_D513G_YF]
**A:** 0.672

**Q:** Also check WQQQSYLYSGI [CTNNB1_Y30_D32Y]
**A:** 0.851

**Q:** Also check NFNPNYCFAGK [ALK_Y1096_D1091N_YF]
**A:** 0.617

**Q:** Also check HNVPIYEGFGL [ACTA1_Y168_A172G_YF]
**A:** 7.97

**Q:** Also check QKPLGYFRVNL [GALE_Y104_D103G_YF]
**A:** 0.67

**Q:** Also check DKATEYSQYMR [MAX_Y70_I71S]
**A:** 0.677

**Q:** Also check RSRQIYDAFIM [GRK3_Y109_YF]
**A:** 9.12

**Q:** Also check NQILPYIEELV [PPP2R1B_Y341_K343E]
**A:** 0.875

**Q:** Also check GSRGKYSSGFC [ATM_Y332_R337C]
**A:** 0.611

**Q:** Also check HEKFLYFLPAS [DYNC2H1_Y346]
**A:** 1.4

**Q:** Also check EEVKAYLDFRE [CHAC2_Y78]
**A:** 0.867

**Q:** Also check EAGKVYLKAAM [CBFB_Y96_P100A]
**A:** 0.775

**Q:** Also check EVKEAYMGSVL [ACAT1_Y90_N93S]
**A:** 0.744

**Q:** Also check TFEYRYLEDQD [CNOT3_Y746_R750Q]
**A:** 0.673

**Q:** Also check NFRPGYNNFFN [USH2A_Y467_YF]
**A:** 0.574

**Q:** Also check CNTIHYNYMCN [TP53_Y234_T230N]
**A:** 0.713

**Q:** Also check EEQKKNFNAMK [SCN5A_Y1494_Y1494N_YF]
**A:** 0.607

**Q:** Also check LKDEDYLKDIV [HAUS3_Y582]
**A:** 1.64

**Q:** Also check RELSWYRGQRP [HESX1_Y106_R109Q]
**A:** 0.38

**Q:** Also check SVIVPYEPPEV [TP53_Y220_V217I]
**A:** 0.831

**Q:** Also check PVFEVYPLLNC [GATA1_Y78_Q76E]
**A:** 1.03

**Q:** Also check SLMNQYVNKKF [RAB7A_Y28]
**A:** 0.447

**Q:** Also check VTQEQYELYCE [CBL_Y368]
**A:** 0.883

**Q:** Also check RCLKDYGEFEV [GINS1_Y156]
**A:** 1.12

**Q:** Also check ILILKYPIEHG [ACTA1_Y71_T68I]
**A:** 0.818

**Q:** Also check NNDLCYWVLEL [IARS1_Y434_P437L]
**A:** 1.31

**Q:** Also check ILQSMYGCDVG [HLA-B_Y123_T118I]
**A:** 0.546

**Q:** Also check NGVSFYINLCQ [IGF2R_Y2025_YF]
**A:** 1.16

**Q:** Also check NVVQEYERVII [NPHS2_Y131_K126N]
**A:** 0.633

**Q:** Also check VHNLNYFKKTT [FGFR3_Y647_D646N_YF]
**A:** 0.442

**Q:** Also check PLGPLYASSNT [INSR_Y992_P997T]
**A:** 1.51

**Q:** Also check FADIAYIFRHG [PAH_Y166_N167I_YF]
**A:** 0.579

**Q:** Also check DEFLEYRRIVG [FAM221A_Y20_YF]
**A:** 0.797

**Q:** Also check QKDTFYGLRSL [IGSF10_Y126]
**A:** 0.837

**Q:** Also check TTKGAYSLSVR [YES1_Y194_I198V]
**A:** 0.517

**Q:** Also check KLSHLYQDHMQ [WNT5A_Y86_C83S]
**A:** 0.616

**Q:** Also check AGIVVYNIIGW [MYH7_Y588_D587V]
**A:** 1.51

**Q:** Also check LEQGEYALRSH [HADHB_Y244_D242G]
**A:** 0.815

**Q:** Also check RWQQLYDTLNA [EIF3M_Y351_Q346R]
**A:** 0.788

**Q:** Also check SGRPGYCLGTR [SCO1_Y60]
**A:** 0.618

**Q:** Also check CTTIHYMFMCN [TP53_Y234_N235M_YF]
**A:** 0.673

**Q:** Also check SIKDKYVMALY [KCNH2_Y611_T613M]
**A:** 0.599
